Where do these numbers come from? They come from patent US8450306B2.

Biological target: hBK1 receptor (Homo sapiens, UniProt P46663)
Sequence (P46663 1-353): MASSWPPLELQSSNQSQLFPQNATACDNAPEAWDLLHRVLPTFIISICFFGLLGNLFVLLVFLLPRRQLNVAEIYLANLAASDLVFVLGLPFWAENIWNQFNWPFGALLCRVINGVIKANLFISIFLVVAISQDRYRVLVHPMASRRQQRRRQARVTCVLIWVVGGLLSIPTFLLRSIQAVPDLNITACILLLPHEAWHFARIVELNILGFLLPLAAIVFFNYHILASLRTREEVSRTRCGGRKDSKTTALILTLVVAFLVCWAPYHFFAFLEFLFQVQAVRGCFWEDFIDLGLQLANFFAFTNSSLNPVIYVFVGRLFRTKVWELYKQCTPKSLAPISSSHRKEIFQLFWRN
property.name: Ki
Answer shape: numeric part, then the unit.

Prompt line: Value wanted: Ki (hBK1 receptor (Homo sapiens, UniProt P46663)) of entry COc1cc(C)c(S(=O)(=O)N(C)CCOCC(=O)N(C)[C@@H]2CCN(C3CCN(C)CC3)C2)c(C)c1
Response line: 1.04 nM
